System: Human BCMA (human) (UniProt Q02223)
Test summary: SPR, IgG on chip, huBCMA analyte
Measured property: pKd
By convention, pKd is the negative base-10 log of a molar concentration.

Answered examples (4):
| Binder | Measured property | Value measured |
| --- | --- | --- |
| A02_Rd4_0.6nM_C06 (antibody, V domains shown, IgG) VH: EVQLLESGGGLVQPGGSLRLSCAASGFTFSSYAMNWVRQAPGKGLEWVSAISDSGGSAWYADSVKGRFTISRDNSKNTLYLQMNSLRAEDTAVYYCARYWPMSLWGQGTLVTVSS VL: EIVLTQSPGTLSLSPGERATLSCRASQSVSVLYLAWYQQKPGQAPRLLMYDASIRATGIPDRFSGSGSGTDFTLTISRLEPEDFAVYYCQQYQRWPLTFGQGTKVEIK | pKd | 10.68 |
| A02_Rd4_0.6nM_C03 (antibody, V domains shown, IgG) VH: EVQLLESGGGLVQPGGSLRLSCAASGFTFSSYAMNWVRQAPGKGLEWVSAISDSGGSKWYADSVKGRFTISRDNSKNTLYLQMNSLRAEDTAVYYCARYWPMSLWGQGTLVTVSS VL: EIVLTQSPGTLSLSPGERATLSCRASQSVSSSYLAWYQQKPGQAPRLLMYDASIRATGIPDRFSGSGSGTDFTLTISRLEPEDFAVYYCQQYFTWPLTFGQGTKVEIK | pKd | 10.37 |
| COMBO_Rd4_6nM_C07 (antibody, V domains shown, IgG) VH: EVQLLESGGGLVQPGGSLRLSCAASGFTFSSYPMSWVRQAPGKGLEWVSAIGGSGGSLPYADSVKGRFTISRDNSKNTLYLQMNSLRAEDTAVYYCARYWPMADWGQGTLVTVSS VL: EIVLTQSPGTLSLSPGERATLSCRASQPISSSYLAWYQQKPGQAPRLLMYDASIRATGIPDRFSGSGSGTDFTLTISRLEPEDFAVYYCQQYQGWPLTFGQGTKVEIK | pKd | 10.46 |
| COMBO_Rd4_6nM_C21 (antibody, V domains shown, IgG) VH: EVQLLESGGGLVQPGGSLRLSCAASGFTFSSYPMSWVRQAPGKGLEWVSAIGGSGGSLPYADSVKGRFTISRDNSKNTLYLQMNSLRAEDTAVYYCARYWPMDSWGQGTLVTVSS VL: EIVLTQSPGTLSLSPGERATLSCRASQSVSAAYLAWYQQKPGQAPRLLMYDASIRATGIPDRFSGSGSGTDFTLTISRLEPEDFAVYYCQQYMCWPLTFGQGTKVEIK | pKd | 11.22 |

API: the following record is the query input.
Request: For C01_Rd4_6nM_C12 (antibody, V domains shown, IgG; also called PC1C12) VH: EVQLLESGGGLVQPGGSLRLSCAASGFTFSSYPMSWVRQAPGKGLEWVSAIGGSGGWSYYADSVKGRFTISRDNSKNTLYLQMNSLRAEDTAVYYCARYWPMDSWGQGTLVTVSS VL: EIVLTQSPGTLSLSPGERATLSCWLSQSVSSTYLAWYQQKPGQAPRLLIYDASSRAPGIPDRFSGSGSGTDFTLTISRLEPEDFAVYYCQQYSEWPLTFGQGTKVEIK , what is its reported pKd?
Result: 9.27
